- test system: CtUGGTGT24 (UDP-glucose glycoprotein glucosyltransferase, catalytic domain) (Thermochaetoides thermophila, UniProt G0SB58)
- Sequence (G0SB58 1187-1473): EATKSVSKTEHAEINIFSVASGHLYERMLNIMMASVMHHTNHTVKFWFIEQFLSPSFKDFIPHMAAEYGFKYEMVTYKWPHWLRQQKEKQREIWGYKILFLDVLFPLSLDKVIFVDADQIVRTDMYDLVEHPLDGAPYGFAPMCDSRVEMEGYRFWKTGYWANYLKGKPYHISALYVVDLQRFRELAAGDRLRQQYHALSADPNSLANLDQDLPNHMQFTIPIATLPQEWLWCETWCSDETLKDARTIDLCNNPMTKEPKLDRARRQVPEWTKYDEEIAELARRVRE
property measured: Kd (µM)

1. Oc1ccc(CN2CCOCC2)c2cccnc12 [5M-8OH-Q, 5-[(morpholin-4-yl)methyl]quinolin-8-ol]: 47

====

- test system: human UGGT1 (Homo sapiens, UniProt Q9NYU2)
- Sequence (Q9NYU2 43-1551): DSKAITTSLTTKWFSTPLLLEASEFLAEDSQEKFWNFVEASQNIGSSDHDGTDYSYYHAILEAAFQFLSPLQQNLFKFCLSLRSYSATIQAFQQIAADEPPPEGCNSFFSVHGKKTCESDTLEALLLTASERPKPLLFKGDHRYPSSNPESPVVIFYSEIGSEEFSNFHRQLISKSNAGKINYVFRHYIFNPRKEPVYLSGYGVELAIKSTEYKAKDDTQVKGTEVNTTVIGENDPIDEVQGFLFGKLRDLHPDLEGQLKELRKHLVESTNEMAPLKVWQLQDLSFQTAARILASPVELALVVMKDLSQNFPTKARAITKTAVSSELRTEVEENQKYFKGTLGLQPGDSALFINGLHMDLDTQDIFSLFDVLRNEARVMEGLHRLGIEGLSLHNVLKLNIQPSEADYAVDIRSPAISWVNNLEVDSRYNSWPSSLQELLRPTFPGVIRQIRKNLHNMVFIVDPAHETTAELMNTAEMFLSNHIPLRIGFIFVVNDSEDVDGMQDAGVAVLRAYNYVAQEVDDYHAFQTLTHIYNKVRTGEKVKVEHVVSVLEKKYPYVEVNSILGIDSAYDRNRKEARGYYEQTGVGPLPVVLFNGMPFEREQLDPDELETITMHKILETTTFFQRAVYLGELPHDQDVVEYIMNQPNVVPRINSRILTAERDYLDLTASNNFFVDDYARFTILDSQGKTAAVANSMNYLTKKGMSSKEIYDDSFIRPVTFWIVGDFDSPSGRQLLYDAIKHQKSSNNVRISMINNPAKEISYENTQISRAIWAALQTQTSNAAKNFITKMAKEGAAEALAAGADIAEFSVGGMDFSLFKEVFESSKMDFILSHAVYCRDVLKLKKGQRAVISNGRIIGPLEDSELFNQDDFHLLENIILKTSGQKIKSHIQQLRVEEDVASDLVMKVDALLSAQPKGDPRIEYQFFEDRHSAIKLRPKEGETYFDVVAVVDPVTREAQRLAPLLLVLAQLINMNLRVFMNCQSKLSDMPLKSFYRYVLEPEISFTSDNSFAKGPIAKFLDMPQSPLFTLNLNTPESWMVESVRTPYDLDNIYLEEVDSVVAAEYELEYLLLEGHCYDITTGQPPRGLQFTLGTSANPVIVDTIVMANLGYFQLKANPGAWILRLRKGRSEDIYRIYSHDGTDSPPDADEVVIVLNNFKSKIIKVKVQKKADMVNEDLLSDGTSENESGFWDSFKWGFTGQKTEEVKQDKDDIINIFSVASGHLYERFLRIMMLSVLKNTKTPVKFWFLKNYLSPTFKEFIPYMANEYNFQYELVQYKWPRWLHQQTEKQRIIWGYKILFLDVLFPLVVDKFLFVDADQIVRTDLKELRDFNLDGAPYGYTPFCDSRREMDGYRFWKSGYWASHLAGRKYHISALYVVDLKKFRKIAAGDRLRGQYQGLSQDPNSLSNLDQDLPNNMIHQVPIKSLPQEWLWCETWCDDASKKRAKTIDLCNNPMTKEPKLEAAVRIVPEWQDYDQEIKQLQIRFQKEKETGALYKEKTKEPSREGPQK
property measured: Kd

1) Oc1ccc(CN2CCOCC2)c2cccnc12 [5M-8OH-Q, 5-[(morpholin-4-yl)methyl]quinolin-8-ol]: 613 µM
